B1: glmS ribozyme (parent)
chain: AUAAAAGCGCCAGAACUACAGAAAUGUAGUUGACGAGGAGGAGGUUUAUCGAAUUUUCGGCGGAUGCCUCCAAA

Variants of: B1
method: self-cleavage kobs at 40 uM GlcN6P; higher = faster cleavage; RNA array
reported.conditions: with glucosamine-6-phosphate
Variants at the floor of the assay were thinned out.
Field: self-cleavage kobs at 40 uM GlcN6P. Provide a value for each of the variants that follow.

variant.spec: A6G A36C G41U
self-cleavage kobs at 40 uM GlcN6P: < 1e-05 s⁻¹
--
variant.spec: G66U C67G
self-cleavage kobs at 40 uM GlcN6P: 3e-05 s⁻¹
--
variant.spec: A15G U45A
self-cleavage kobs at 40 uM GlcN6P: 0.00128 s⁻¹
--
variant.spec: G7U U30A
self-cleavage kobs at 40 uM GlcN6P: < 1e-05 s⁻¹
--
variant.spec: G29U G40C A52G
self-cleavage kobs at 40 uM GlcN6P: < 1e-05 s⁻¹
--
variant.spec: A14G A53U
self-cleavage kobs at 40 uM GlcN6P: 0.00142 s⁻¹
--
variant.spec: G13U A52C
self-cleavage kobs at 40 uM GlcN6P: < 1e-05 s⁻¹
--
variant.spec: G7U G38U U46G
self-cleavage kobs at 40 uM GlcN6P: < 1e-05 s⁻¹

Give self-cleavage kobs at 40 uM GlcN6P for all variants that follow.
1. C10U G62A
2. C8U C11U U57G C67G
3. G35U G38A
4. C8G C70A

Solution:
["< 1e-05 s⁻¹", "0.000617 s⁻¹", "< 1e-05 s⁻¹", "< 1e-05 s⁻¹"]

Give self-cleavage kobs at 40 uM GlcN6P for all variants that follow.
1. G29U U45A C61A
2. U30A U49C U55A
3. C8A C11G G38U G60A
4. G37C G38A
5. U65G C67U
6. A6G G32C
7. G13C U31A G40U

Solution:
< 1e-05 s⁻¹
< 1e-05 s⁻¹
< 1e-05 s⁻¹
< 1e-05 s⁻¹
3.92e-05 s⁻¹
< 1e-05 s⁻¹
< 1e-05 s⁻¹

Give self-cleavage kobs at 40 uM GlcN6P for all variants that follow.
1. A33U G59U
2. G44U C50G A53U G59A C68A
3. G13U A36U
4. C11U A15C G51U C70A
5. C11U C58G C68U

Solution:
< 1e-05 s⁻¹
< 1e-05 s⁻¹
< 1e-05 s⁻¹
6.91e-05 s⁻¹
7.67e-05 s⁻¹

Give self-cleavage kobs at 40 uM GlcN6P for all variants that follow.
1. A36G G41C G43C A48G
2. A12C C71G
3. A53G U69G

Solution:
< 1e-05 s⁻¹
4.39e-05 s⁻¹
5.96e-05 s⁻¹
